Tested on: Rh18 complex spheroid viability, percent test/control
Assay: Anticancer human tumor Rh18 cell line growth inhibition [Asc]; active = viability on the fitted dose curve at most 10% of control; inactive = the rest;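 note: spheroids exposed to compound for 7 days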
Conditions: second compound 0.0316 µM; first compound 0.0316 µM
Select the correct class. Options are active, inactive and nothing else.

See these solved cases before continuing.
Cn1ncnc1[C@H]1c2n[nH]c(=O)c3cc(F)cc(c23)N[C@@H]1c1ccc(F)cc1 + CNC(C)C(=O)NC1CN(S(=O)(=O)c2cccc(S(=O)(=O)N3CCC4CCC(C(=O)NC(c5ccccc5)c5ccccc5)N4C(=O)C(NC(=O)C(C)NC)C3)c2)CCC2CCC(C(=O)NC(c3ccccc3)c3ccccc3)N2C1=O : inactive
C=CC(=O)N1CCN(c2nc(=O)n(-c3c(C)ccnc3C(C)C)c3nc(-c4c(O)cccc4F)c(F)cc23)C(C)C1 (centres undefined) + CNC(C)C(=O)NC1CN(S(=O)(=O)c2cccc(S(=O)(=O)N3CCC4CCC(C(=O)NC(c5ccccc5)c5ccccc5)N4C(=O)C(NC(=O)C(C)NC)C3)c2)CCC2CCC(C(=O)NC(c3ccccc3)c3ccccc3)N2C1=O : inactive

Request: For COc1c(OCCCN2CCOCC2)ccc2c3n(c(=NC(=O)c4cnc(N)nc4)nc12)CCN3 + CNC(C)C(=O)NC1CN(S(=O)(=O)c2cccc(S(=O)(=O)N3CCC4CCC(C(=O)NC(c5ccccc5)c5ccccc5)N4C(=O)C(NC(=O)C(C)NC)C3)c2)CCC2CCC(C(=O)NC(c3ccccc3)c3ccccc3)N2C1=O , what call appears in the results of this test?
Response: active

Request: Please share the test call associated with NC1CCC(NC2CC2c2ccccc2)CC1 (centres undefined) + CNC(C)C(=O)NC1CN(S(=O)(=O)c2cccc(S(=O)(=O)N3CCC4CCC(C(=O)NC(c5ccccc5)c5ccccc5)N4C(=O)C(NC(=O)C(C)NC)C3)c2)CCC2CCC(C(=O)NC(c3ccccc3)c3ccccc3)N2C1=O .
Response: inactive

* * *

Test system: Rh18 complex spheroid viability, percent test/control
Assay: Anticancer human tumor Rh18 cell line growth inhibition [Asc];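 note: spheroids exposed to compound for 7 days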;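 for viability, T/C: 100% = DMSO vehicle control wells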
Conditions: second compound 1 µM; first compound 0.01 µM; stronger effect = lower value
The entries below come with measured viability, T/C values attached.
Report only the number, with the unit % understood.

Completed entries (count: 2):
CCN1CCN(Cc2ccc(Nc3ncc(F)c(-c4cc(F)c5nc(C)n(C(C)C)c5c4)n3)nc2)CC1 + CNC(C)C(=O)NC1CN(S(=O)(=O)c2cccc(S(=O)(=O)N3CCC4CCC(C(=O)NC(c5ccccc5)c5ccccc5)N4C(=O)C(NC(=O)C(C)NC)C3)c2)CCC2CCC(C(=O)NC(c3ccccc3)c3ccccc3)N2C1=O : 30
Cn1ncnc1[C@H]1c2n[nH]c(=O)c3cc(F)cc(c23)N[C@@H]1c1ccc(F)cc1 + CNC(C)C(=O)NC1CN(S(=O)(=O)c2cccc(S(=O)(=O)N3CCC4CCC(C(=O)NC(c5ccccc5)c5ccccc5)N4C(=O)C(NC(=O)C(C)NC)C3)c2)CCC2CCC(C(=O)NC(c3ccccc3)c3ccccc3)N2C1=O : 26.1

Request: I'd like to know its viability, T/C. The compound in question is COc1c(OCCCN2CCOCC2)ccc2c3n(c(=NC(=O)c4cnc(N)nc4)nc12)CCN3 + Cc1c(S(C)(=O)=O)c(-c2cc(F)cc(N3CCN(c4ccc(NS(=O)(=O)c5ccc(NC(CCN6CCC(C(=O)OCCCP(=O)(O)O)CC6)CSc6ccccc6)c(S(=O)(=O)C(F)(F)F)c5)cc4)CC3)c2)c(-c2ccc(Cl)cc2)n1C(C)C
Response: 6.08

* * *

Tested on: Rh18 complex spheroid viability, percent test/control
Assay: Anticancer human tumor Rh18 cell line growth inhibition [Asc];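 note: spheroids exposed to compound for 7 days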
Conditions: curve of first compound; second compound 0.0949 µM
pIC50: −log10 of the molar value.
Recorded metric: pIC50

Request: Hello, I am looking for reported pIC50 with Rh18 complex spheroid viability, percent test/control for C=C(F)C(=O)N1CCN(c2nc(OCC3CCCN3C)nc3c2CCN(c2cccc4cccc(Cl)c24)C3)CC1CC#N (centres undefined) + CCN1C(C(=O)NC23CCC(C(=O)O)(CC2)CC3)C(c2cccc(Cl)c2F)C2(C(=O)Nc3cc(Cl)ccc32)C12CCCCC2 . Could you help?
Response: > 7.50

Request: Requested read-out pIC50, target or system Rh18 complex spheroid viability, percent test/control, entry Cn1ncnc1[C@H]1c2n[nH]c(=O)c3cc(F)cc(c23)N[C@@H]1c1ccc(F)cc1 + CCN1C(C(=O)NC23CCC(C(=O)O)(CC2)CC3)C(c2cccc(Cl)c2F)C2(C(=O)Nc3cc(Cl)ccc32)C12CCCCC2
Response: > 9.50

Request: pIC50, test system Rh18 complex spheroid viability, percent test/control, entry O=C(c1cc(Cc2n[nH]c(=O)c3ccccc23)ccc1F)N1CCN(C(=O)C2CC2)CC1 + CCN1C(C(=O)NC23CCC(C(=O)O)(CC2)CC3)C(c2cccc(Cl)c2F)C2(C(=O)Nc3cc(Cl)ccc32)C12CCCCC2
Response: > 7.50

Request: Please tell me: pIC50 of NC(=O)C(=Cn1cnc(-c2cc(C(F)(F)F)cc(C(F)(F)F)c2)n1)c1cncnc1 + CCN1C(C(=O)NC23CCC(C(=O)O)(CC2)CC3)C(c2cccc(Cl)c2F)C2(C(=O)Nc3cc(Cl)ccc32)C12CCCCC2 , system Rh18 complex spheroid viability, percent test/control?
Response: > 9.02

* * *

Test system: Rh18 complex spheroid viability, percent test/control
Assay: Anticancer human tumor Rh18 cell line growth inhibition [Asc];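 note: spheroids exposed to compound for 7 days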;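 for viability, T/C: 100% = DMSO vehicle control wells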
Settings: second compound 0.316 µM; first compound 0.01 µM; stronger effect = lower value
Values of viability, T/C strictly less than 10% map to Met, and values of at least 10% map to Not met.

Worked examples, 5 molecules total:
Cn1ncnc1[C@H]1c2n[nH]c(=O)c3cc(F)cc(c23)N[C@@H]1c1ccc(F)cc1 + Cc1c(S(C)(=O)=O)c(-c2cc(F)cc(N3CCN(c4ccc(NS(=O)(=O)c5ccc(NC(CCN6CCC(C(=O)OCCCP(=O)(O)O)CC6)CSc6ccccc6)c(S(=O)(=O)C(F)(F)F)c5)cc4)CC3)c2)c(-c2ccc(Cl)cc2)n1C(C)C : Not met
O=C(c1ccc(F)c(F)c1Nc1ccc(I)cc1F)N1CC(O)([C@@H]2CCCCN2)C1 + Cc1c(S(C)(=O)=O)c(-c2cc(F)cc(N3CCN(c4ccc(NS(=O)(=O)c5ccc(NC(CCN6CCC(C(=O)OCCCP(=O)(O)O)CC6)CSc6ccccc6)c(S(=O)(=O)C(F)(F)F)c5)cc4)CC3)c2)c(-c2ccc(Cl)cc2)n1C(C)C : Not met
CCN1CCN(Cc2ccc(Nc3ncc(F)c(-c4cc(F)c5nc(C)n(C(C)C)c5c4)n3)nc2)CC1 + CNC(C)C(=O)NC1CN(S(=O)(=O)c2cccc(S(=O)(=O)N3CCC4CCC(C(=O)NC(c5ccccc5)c5ccccc5)N4C(=O)C(NC(=O)C(C)NC)C3)c2)CCC2CCC(C(=O)NC(c3ccccc3)c3ccccc3)N2C1=O : Not met
CNC(C)C(=O)NC1CN(S(=O)(=O)c2cccc(S(=O)(=O)N3CCC4CCC(C(=O)NC(c5ccccc5)c5ccccc5)N4C(=O)C(NC(=O)C(C)NC)C3)c2)CCC2CCC(C(=O)NC(c3ccccc3)c3ccccc3)N2C1=O (stereo not drawn) + Cc1c(S(C)(=O)=O)c(-c2cc(F)cc(N3CCN(c4ccc(NS(=O)(=O)c5ccc(NC(CCN6CCC(C(=O)OCCCP(=O)(O)O)CC6)CSc6ccccc6)c(S(=O)(=O)C(F)(F)F)c5)cc4)CC3)c2)c(-c2ccc(Cl)cc2)n1C(C)C : Met
NC1CCC(NC2CC2c2ccccc2)CC1 (stereo not drawn) + CNC(C)C(=O)NC1CN(S(=O)(=O)c2cccc(S(=O)(=O)N3CCC4CCC(C(=O)NC(c5ccccc5)c5ccccc5)N4C(=O)C(NC(=O)C(C)NC)C3)c2)CCC2CCC(C(=O)NC(c3ccccc3)c3ccccc3)N2C1=O : Not met

Request: is_below(viability, T/C, 10%) for NC1CCC(NC2CC2c2ccccc2)CC1 (stereo not drawn) + Cc1c(S(C)(=O)=O)c(-c2cc(F)cc(N3CCN(c4ccc(NS(=O)(=O)c5ccc(NC(CCN6CCC(C(=O)OCCCP(=O)(O)O)CC6)CSc6ccccc6)c(S(=O)(=O)C(F)(F)F)c5)cc4)CC3)c2)c(-c2ccc(Cl)cc2)n1C(C)C ?
Response: Met

Request: Problem: For the molecule CCN1CCN(Cc2ccc(Nc3ncc(F)c(-c4cc(F)c5nc(C)n(C(C)C)c5c4)n3)nc2)CC1 + Cc1c(S(C)(=O)=O)c(-c2cc(F)cc(N3CCN(c4ccc(NS(=O)(=O)c5ccc(NC(CCN6CCC(C(=O)OCCCP(=O)(O)O)CC6)CSc6ccccc6)c(S(=O)(=O)C(F)(F)F)c5)cc4)CC3)c2)c(-c2ccc(Cl)cc2)n1C(C)C , is viability, T/C under 10%?
Response: Met

Request: viability, T/C strictly < 10% for this molecule? O=C(c1ccc(F)c(F)c1Nc1ccc(I)cc1F)N1CC(O)([C@@H]2CCCCN2)C1 + CNC(C)C(=O)NC1CN(S(=O)(=O)c2cccc(S(=O)(=O)N3CCC4CCC(C(=O)NC(c5ccccc5)c5ccccc5)N4C(=O)C(NC(=O)C(C)NC)C3)c2)CCC2CCC(C(=O)NC(c3ccccc3)c3ccccc3)N2C1=O
Response: Not met
